Source listed as patent US11384075B2.

# target: human FGFR3 V555M enzyme (cytoplasmic domain carrying V555M mutation) (Homo sapiens, UniProt P22607, V555M)
# Construct: human FGFR3 V555M enzyme (cytoplasmic domain carrying V555M mutation, from Carna Biosciences)
# Sequence (P22607 397-806 V555M limits assumed): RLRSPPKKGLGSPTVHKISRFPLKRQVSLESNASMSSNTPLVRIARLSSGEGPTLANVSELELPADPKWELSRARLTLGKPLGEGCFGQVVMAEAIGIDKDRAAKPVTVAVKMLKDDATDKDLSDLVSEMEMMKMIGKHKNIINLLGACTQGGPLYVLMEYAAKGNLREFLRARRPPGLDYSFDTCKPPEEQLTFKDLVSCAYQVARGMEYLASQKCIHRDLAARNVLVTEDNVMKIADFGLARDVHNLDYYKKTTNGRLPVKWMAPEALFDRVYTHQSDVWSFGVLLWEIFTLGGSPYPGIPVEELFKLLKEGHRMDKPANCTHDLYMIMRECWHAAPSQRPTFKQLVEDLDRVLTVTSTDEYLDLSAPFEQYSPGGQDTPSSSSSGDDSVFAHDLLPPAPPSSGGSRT
# procedureDetails: FGFR3 V555M mobility shift assay (enzymatic assay)
# testParameters: 30 μM ATP, 45 minutes at 30° C., Caliper EZ reader II
attributeMeasured: IC50 (nM)

# count of solved cases: 4
INSERT INTO assay_data (molecule, attributemeasured, readingunit, reportedresult) VALUES
  ('Cc1ccnc(C(C)Nc2c(-c3nc4ccc(N5CCOCC5)cc4[nH]3)c(=O)[nH]c3ccccc23)n1 (single isomer, unassigned) [Compound 34a]', 'IC50', 'nM', 1.59),
  ('COC(=O)C1CN(c2ccc3nc(-c4c(N[C@@H](C)c5ccccn5)c5ccccc5[nH]c4=O)[nH]c3c2)CCO1 (mixture of isomers) [Compound 59]', 'IC50', 'nM', 0.359),
  ('C[C@H](Nc1c(-c2nc3ccc(C(=O)N4CCOCC4)cc3[nH]2)c(=O)[nH]c2ccccc12)c1ccccn1', 'IC50', 'nM', 0.49),
  ('COC(=O)C1CN(c2ccc3nc(-c4c(N[C@@H](C)c5ccccn5)c5ccccc5[nH]c4=O)[nH]c3c2)CCO1 (single isomer, unassigned) [Compound 62]', 'IC50', 'nM', 1.21);

I: C[C@H](Nc1c(-c2nc3cc(C(F)(F)F)c(NC4CCN(C)CC4)cc3[nH]2)c(=O)[nH]c2ccccc12)c1ccccn1
II: CC(Nc1c(-c2nc3cc(C(F)(F)F)c(N4CCC(C(=O)O)CC4)cc3[nH]2)c(=O)[nH]c2ccccc12)c1ncccn1 (single isomer, unassigned)
III: CC(Nc1c(-c2nc3cc(F)c(N4CCOCC4)cc3[nH]2)c(=O)[nH]c2ccccc12)c1ncccn1 (single isomer, unassigned) [Compound 27a]
IV: CC(Nc1c(-c2nc3ccc(N4C[C@@H](C)O[C@H](C)C4)cc3[nH]2)c(=O)[nH]c2ccccc12)c1ncccn1 (single isomer, unassigned) [Compound 37b]
Incoming: Put the items in sequence by IC50, from largest down. # output: labels, in the requested order
Outgoing: IV, I, II, III
(IV: 20.2 nM, I: 1.35 nM, II: 0.382 nM, III: 0.255 nM)

A: COC(=O)C1CCN(c2ccc3nc(-c4c(N[C@@H](C)c5ccccn5)c5ccccc5[nH]c4=O)[nH]c3c2)CC1
B: C[C@H](Nc1c(-c2nc3ccc(N4CCOCC4)cc3[nH]2)c(=O)[nH]c2c(F)cccc12)c1ccccn1
Incoming: From the items above, decide which of A and B has the lower IC50 reading. Field: selected label. Fill in the label of the entry you choose.
Outgoing: A

I: C[C@H](Nc1c(-c2nc3ccc(N4CCOCC4)c(F)c3[nH]2)c(=O)[nH]c2ccccc12)c1ccccn1
II: CCCC(Nc1c(-c2nc3ccc(N4CCOCC4)cc3[nH]2)c(=O)[nH]c2ccccc12)c1ncccn1 (single isomer, unassigned) [Compound 31a]
Incoming: For the two items I and II , which reports the higher IC50 value? Field: selected label. Fill in the label of the entry you choose.
Outgoing: I

* * *

# System: NIH/3T3 cells transfected with the same control vector
# procedureDetails: NIH/3T3 mock cell proliferation assay (counter assay, general toxicity)
# Format: cell-based
# testParameters: Mus musculus, NIH3T3, 72 h, 72-hr incubation, CellTiter Glo, starting with 30 μM; counter assay for general toxicity; read-out: NIH/3T3 MOCK CTG (IC50)
attributeMeasured: IC50 (nM)
Form entry: value (nM) — number only.

# count of solved cases: 3
INSERT INTO assay_data (compound, reportedresult) VALUES
  ('CC(Nc1c(-c2nc3ccc(N4C[C@@H](C)O[C@@H](C)C4)cc3[nH]2)c(=O)[nH]c2ccccc12)c1ncccn1 (single isomer, unassigned) [Compound 22a]', 6390),
  ('C[C@H](Nc1c(-c2nc3ccc(N4CCN(C)CC4)cc3[nH]2)c(=O)[nH]c2ccccc12)c1ccccn1', 165),
  ('CCC(Nc1c(-c2nc3ccc(N4CCOCC4)cc3[nH]2)c(=O)[nH]c2ccccc12)c1ncccn1 (single isomer, unassigned) [Compound 30a]', 2910);

Incoming: Look up and state reported IC50 for CC(Nc1c(-c2nc3ccc(N4CCOCC4)cc3[nH]2)c(=O)[nH]c2ccccc12)c1ccn(C(C)C)n1 (single isomer, unassigned) [Compound 36b]
Outgoing: 1520

Incoming: Look up and state reported IC50 for CC(Nc1c(-c2nc3ccc(N4C[C@H](C)O[C@@H](C)C4)cc3[nH]2)c(=O)[nH]c2ccccc12)c1ncccn1 (single isomer, unassigned) [Compound 39a]
Outgoing: 1600

Incoming: Look up and state reported IC50 for CC(Nc1c(-c2nc3ccc(N4CCN(CCC(F)(F)F)CC4)cc3[nH]2)c(=O)[nH]c2ccccc12)c1ncccn1 (single isomer, unassigned) [Compound 41a]
Outgoing: 6970

Incoming: Look up and state reported IC50 for CC(Nc1c(-c2nc3ccc(C4CCOCC4)cc3[nH]2)c(=O)[nH]c2ccccc12)c1ncccn1 (single isomer, unassigned) [Compound 29a]
Outgoing: 4690

Incoming: Look up and state reported IC50 for CC(Nc1c(-c2nc3ccc(-c4cnn(C)c4)cc3[nH]2)c(=O)[nH]c2ccccc12)c1ncccn1 (single isomer, unassigned) [Compound 53a]
Outgoing: 1690

Incoming: Look up and state reported IC50 for C[C@H](Nc1c(-c2nc3ccc(C(=O)N4CCOCC4)cc3[nH]2)c(=O)[nH]c2ccccc12)c1ccccn1
Outgoing: 952

Incoming: Look up and state reported IC50 for C[C@H](Nc1c(-c2nc3ccc(N4CCN(C)C(=O)C4)cc3[nH]2)c(=O)[nH]c2ccccc12)c1ccccn1
Outgoing: 1190

Incoming: Look up and state reported IC50 for CC(Nc1c(-c2nc3ccc(N4CCC(OC(F)(F)F)CC4)cc3[nH]2)c(=O)[nH]c2ccccc12)c1ncccn1 (single isomer, unassigned) [Compound 43a]
Outgoing: 8270

Incoming: Look up and state reported IC50 for O=c1[nH]c2ccccc2c(NC(c2ncccn2)C2CC2)c1-c1nc2ccc(N3CCOCC3)cc2[nH]1 (single isomer, unassigned) [Compound 33a]
Outgoing: 1080
